Hello, the source for this data is ChEMBL document CHEMBL1926627, in case you need it.

- assay-system: Prostaglandin E2 receptor EP4 subtype (Rattus norvegicus)
- Sequence (P43114 whole entry): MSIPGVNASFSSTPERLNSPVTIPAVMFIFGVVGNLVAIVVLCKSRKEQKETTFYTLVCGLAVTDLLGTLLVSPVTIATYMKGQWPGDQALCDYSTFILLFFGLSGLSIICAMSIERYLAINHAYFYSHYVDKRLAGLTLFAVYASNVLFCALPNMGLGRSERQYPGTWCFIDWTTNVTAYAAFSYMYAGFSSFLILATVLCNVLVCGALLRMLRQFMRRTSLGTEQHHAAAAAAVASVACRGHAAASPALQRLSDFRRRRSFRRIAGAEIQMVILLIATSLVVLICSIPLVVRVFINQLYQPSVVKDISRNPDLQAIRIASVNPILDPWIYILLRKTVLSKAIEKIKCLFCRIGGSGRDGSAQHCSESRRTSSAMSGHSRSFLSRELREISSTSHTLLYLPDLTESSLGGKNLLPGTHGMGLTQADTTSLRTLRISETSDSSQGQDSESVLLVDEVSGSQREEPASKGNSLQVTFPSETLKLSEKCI
- test: Agonist activity at rat EP4 receptor expressed in CHO cells assessed as cAMP production after 10 mins by radioimmunoassay
pEC50: −log10 of the molar value.
Rule: T for pEC50 not less than 8, F for anything less.

{"chemical-smiles": "CCCc1cccc(C[C@H](O)/C=C/[C@H]2COC(=O)N2CCSCCCC(=O)O)c1", "class-label": "F"}
{"chemical-smiles": "COCc1cccc(C[C@H](O)/C=C/[C@H]2CCC(=O)[C@@H]2CCSCCCC(=O)O)c1", "class-label": "T"}
{"chemical-smiles": "O=C(O)CCCSCCN1C(=O)OC[C@@H]1/C=C/[C@@H](O)Cc1cccc(OC(F)(F)F)c1", "class-label": "F"}
{"chemical-smiles": "O=C(O)CCCSCCN1C(=O)SC[C@@H]1/C=C/[C@@H](O)Cc1cccc(C(F)(F)F)c1", "class-label": "T"}

stdin: Test whether the compound COCc1cccc(C[C@H](O)/C=C/[C@H]2COC(=O)N2CCSCCCC(=O)O)c1 records pEC50 of 8 or higher.
stdout: F
